Measured values drawn from patent US20250295815A1 for this set.

ASSAY TEXT: Dyad photophysical properties in toluene, excited at 405 nm
Assay type: physicochemical
APPLIED CONDITIONS: room temperature
Can you tell me abs max Qx for the items I'm about to list?
Form field: result (number plus unit)

Q) Identify measured abs max Qx associated with COc1c2nc(cc3ccc([nH]3)c(-c3ccc(-c4c5nc(cc6ccc(cc7nc(cc8ccc4[nH]8)C=C7)[nH]6)C=C5)cc3)c3nc(cc4ccc1[nH]4)C(C)(C)C3)C(C)(C)C2
A) 511 nm

Q) Identify measured abs max Qx associated with COC(=O)c1ccc(-c2c3nc(cc4ccc(cc5nc(cc6[nH]c2cc6C#Cc2ccc(-c6c7nc(cc8ccc([nH]8)c(-c8c(C)cc(C)cc8C)c8nc(cc9ccc6[nH]9)C=C8)C=C7)cc2)CC5(C)C)[nH]4)C=C3)cc1
A) 505 nm

Q) Identify measured abs max Qx associated with COC(=O)c1ccc(C2=c3ccc4[n]3[Zn][n]3c(ccc3C(c3ccc(C#Cc5ccc(C6=c7ccc8[n]7[Zn][n]7c(ccc7C=C7N=C(C=8)CC7(C)C)C=C7C=CC6=N7)cc5)cc3)=C3C=CC(=N3)C=4)C=C3C=CC2=N3)cc1
A) 540 nm

Q) Identify measured abs max Qx associated with COC(=O)c1ccc(-c2c3nc(cc4ccc(cc5nc(cc6[nH]c2cc6C#Cc2ccc(C6=C7C=CC(=N7)C=c7ccc8[n]7[Zn][n]7c(ccc76)C=C6C=CC(=N6)C=8)cc2)CC5(C)C)[nH]4)C=C3)cc1
A) 534 nm

====

Can you tell me ext coeff (405 nm) for the items I'm about to list?
ASSAY TEXT: Brightness of hydroporphyrin monomers vs. porphyrin-hydroporphyrin dyads at 405 nm excitation
Assay type: physicochemical
APPLIED CONDITIONS: molar absorption coefficient at 405 nm; in M-1 cm-1 (unit assumed)

Q) Identify measured ext coeff (405 nm) associated with COC(=O)c1ccc(-c2c3nc(cc4[nH]c(cc5nc(cc6[nH]c2cc6-c2ccc(CNC(=O)c6ccc(C7=C8C=CC(=N8)C=c8ccc9[n]8[Zn][n]8c(ccc87)C=C7C=CC(=N7)C=9)cc6)cc2)CC5(C)C)cc4-c2ccccc2)C=C3)cc1 [P2-C1, methyl ester]
A) 346,400

Q) Identify measured ext coeff (405 nm) associated with COc1c2nc(cc3ccc([nH]3)c(-c3ccc(-c4c5nc(cc6ccc(cc7nc(cc8ccc4[nH]8)C=C7)[nH]6)C=C5)cc3)c3nc(cc4ccc1[nH]4)C(C)(C)C3)C(C)(C)C2 [Dyad P11-BC3]
A) 118,100

Q) Identify measured ext coeff (405 nm) associated with COC(=O)c1ccc(-c2c3nc(cc4[nH]c(cc5nc(cc6[nH]c2cc6C#Cc2ccc(-c6c7nc(cc8ccc(cc9nc(cc%10ccc6[nH]%10)C=C9)[nH]8)C=C7)cc2)CC5(C)C)cc4C#Cc2ccc(-c4c5nc(cc6ccc(cc7nc(cc8ccc4[nH]8)C=C7)[nH]6)C=C5)cc2)C=C3)cc1 [Dyad P1-C6]
A) 238,800

Q) Identify measured ext coeff (405 nm) associated with COC(=O)c1c(C#Cc2ccc(-c3c4nc(cc5ccc(cc6nc(cc7ccc3[nH]7)C=C6)[nH]5)C=C4)cc2)c2cc3nc(c(OC)c4[nH]c(cc5nc(cc1[nH]2)CC5(C)C)c(C#Cc1ccc(-c2c5nc(cc6ccc(cc7nc(cc8ccc2[nH]8)C=C7)[nH]6)C=C5)cc1)c4C(=O)OC)CC3(C)C [Dyad P1-BC2]
A) 325,400

====

ASSAY TEXT: Dyad photophysical properties in toluene, excited at 405 nm
Type: physicochemical
APPLIED CONDITIONS: fluorescence quantum yield, excited at 405 nm, room temperature
Can you tell me QY (x405) for the items I'm about to list?

Q) Identify measured QY (x405) associated with COC(=O)c1ccc(-c2c(C(=O)OC)c3cc4nc(cc5[nH]c(c(OC)c6nc(cc2[nH]3)C(C)(C)C6)c(C(=O)OC)c5C#Cc2ccc(C3=C5C=CC(=N5)C=c5ccc6[n]5[Zn][n]5c(ccc53)C=C3C=CC(=N3)C=6)cc2)C(C)(C)C4)cc1 [Dyad P8-BC2]
A) 0.20

Q) Identify measured QY (x405) associated with COC(=O)c1ccc(-c2c3nc(cc4ccc(cc5nc(cc6[nH]c2cc6C#Cc2ccc(CNC(=O)c6ccc(-c7c8nc(cc9ccc([nH]9)c(-c9c(C)cc(C)cc9C)c9nc(cc%10ccc7[nH]%10)C=C9)C=C8)cc6)cc2)CC5(C)C)[nH]4)C=C3)cc1 [Dyad P5-C3]
A) 0.08

Q) Identify measured QY (x405) associated with COC(=O)c1ccc(-c2c3nc(cc4ccc(cc5nc(cc6[nH]c2cc6C#Cc2ccc(-c6c7nc(cc8ccc([nH]8)c(-c8c(C)cc(C)cc8C)c8nc(cc9ccc6[nH]9)C=C8)C=C7)cc2)CC5(C)C)[nH]4)C=C3)cc1 [P7-C1; P6-C3]
A) 0.21

Q) Identify measured QY (x405) associated with COC(=O)c1c(C#Cc2ccc(-c3c4nc(cc5ccc(cc6nc(cc7ccc3[nH]7)C=C6)[nH]5)C=C4)cc2)c2cc3nc(c(OC)c4[nH]c(cc5nc(cc1[nH]2)CC5(C)C)c(C#Cc1ccc(-c2c5nc(cc6ccc(cc7nc(cc8ccc2[nH]8)C=C7)[nH]6)C=C5)cc1)c4C(=O)OC)CC3(C)C [Dyad P1-BC2]
A) 0.19

====

ASSAY TEXT: Brightness of hydroporphyrin monomers vs. porphyrin-hydroporphyrin dyads at 405 nm excitation
Type: physicochemical
APPLIED CONDITIONS: toluene, room temperature
Procedure: Brightness was calculated using an excitation wavelength of 405 nm for a hydroporphyrin monomer having an emission wavelength of approximately 660, 680, 715, or 800 nm and for a fluorescent compound including a porphyrin and a hydroporphyrin structurally similar to the hydroporphyrin monomer. Brightness was calculated as the product of the molar absorption coefficient at 405 nm and the fluorescence quantum yield in toluene at room temperature. […]
Can you tell me em max for the items I'm about to list?

Q) Identify measured em max associated with COC(=O)c1ccc(-c2c3nc(cc4[nH]c(cc5nc(cc6[nH]c2cc6C#Cc2ccc(-c6c7nc(cc8ccc(cc9nc(cc%10ccc6[nH]%10)C=C9)[nH]8)C=C7)cc2)CC5(C)C)cc4C#Cc2ccc(-c4c5nc(cc6ccc(cc7nc(cc8ccc4[nH]8)C=C7)[nH]6)C=C5)cc2)C=C3)cc1 [Dyad P1-C6]
A) 682 nm

Q) Identify measured em max associated with COC(=O)c1ccc(-c2c3nc(cc4[nH]c(cc5nc(cc6[nH]c2cc6-c2ccc(CNC(=O)c6ccc(C7=C8C=CC(=N8)C=c8ccc9[n]8[Zn][n]8c(ccc87)C=C7C=CC(=N7)C=9)cc6)cc2)CC5(C)C)cc4-c2ccccc2)C=C3)cc1 [P2-C1, methyl ester]
A) 656 nm

Q) Identify measured em max associated with COc1c2nc(cc3ccc([nH]3)c(-c3ccc(-c4c5nc(cc6ccc(cc7nc(cc8ccc4[nH]8)C=C7)[nH]6)C=C5)cc3)c3nc(cc4ccc1[nH]4)C(C)(C)C3)C(C)(C)C2 [Dyad P11-BC3]
A) 714 nm

Q) Identify measured em max associated with COC(=O)c1c(C#Cc2ccc(-c3c4nc(cc5ccc(cc6nc(cc7ccc3[nH]7)C=C6)[nH]5)C=C4)cc2)c2cc3nc(c(OC)c4[nH]c(cc5nc(cc1[nH]2)CC5(C)C)c(C#Cc1ccc(-c2c5nc(cc6ccc(cc7nc(cc8ccc2[nH]8)C=C7)[nH]6)C=C5)cc1)c4C(=O)OC)CC3(C)C [Dyad P1-BC2]
A) 804 nm

====

ASSAY TEXT: Dyad photophysical properties in toluene, excited at 405 nm
Type: physicochemical
APPLIED CONDITIONS: room temperature
Experimental: The photophysical properties of samples were tested in toluene at room temperature and excited at 405 nm.
Can you tell me abs max Qy for the items I'm about to list?
Give the number; nm is assumed, so skip it.

Q) Identify measured abs max Qy associated with COC(=O)c1ccc(-c2c3nc(cc4ccc(cc5nc(cc6[nH]c2cc6C#Cc2ccc(C6=C7C=CC(=N7)C=c7ccc8[n]7[Zn][n]7c(ccc76)C=C6C=CC(=N6)C=8)cc2)CC5(C)C)[nH]4)C=C3)cc1
A) 659

Q) Identify measured abs max Qy associated with COC(=O)c1ccc(-c2c3nc(cc4ccc(cc5nc(cc6[nH]c2cc6C#Cc2ccc(CNC(=O)c6ccc(-c7c8nc(cc9ccc([nH]9)c(-c9c(C)cc(C)cc9C)c9nc(cc%10ccc7[nH]%10)C=C9)C=C8)cc6)cc2)CC5(C)C)[nH]4)C=C3)cc1
A) 657

Q) Identify measured abs max Qy associated with COc1c2nc(cc3ccc([nH]3)c(-c3ccc(-c4c5nc(cc6ccc(cc7nc(cc8ccc4[nH]8)C=C7)[nH]6)C=C5)cc3)c3nc(cc4ccc1[nH]4)C(C)(C)C3)C(C)(C)C2
A) 714

Q) Identify measured abs max Qy associated with COC(=O)c1ccc(-c2c3nc(cc4[nH]c(cc5nc(cc6[nH]c2cc6-c2ccc(CNC(=O)c6ccc(-c7c8nc(cc9ccc([nH]9)c(-c9c(C)cc(C)cc9C)c9nc(cc%10ccc7[nH]%10)C=C9)C=C8)cc6)cc2)CC5(C)C)cc4-c2ccccc2)C=C3)cc1
A) 652
